// %Inh lookup, one value per entry
test system: MAST1; conditions: concentration: 1 μM, replicates: in singlicate; n = 1;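 also: KINOMEscan kinase panel screen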
Unit % implied. Number only.

Answered cases to consult:
                                   compound  target_system  assay_readout  value
0  COCCOCCOc1cc2ncc3c4ccc(C#N)cc4[nH]c3c2cc1OC          MAST1           %Inh     69
1  CCn1c(-c2nonc2N)nc2c(C#CC(C)(C)O)ncc(OCCCCN)c21.O=C(O)C(F)(F)F.O=C(O)C(F)(F)F          MAST1           %Inh     56
2  O=C(NC1CCN(c2ccnc(Nc3ccc(F)cc3)n2)C1)c1cc2ccccc2s1 (centres unmarked)          MAST1           %Inh      0

Given CCS(=O)(=O)c1ccc(OC)c(Nc2nccc(-c3c(-c4cccc(NC(=O)c5c(F)cccc5F)c4)nn4ncccc34)n2)c1 , report its %Inh on MAST1.
0

For MAST1, give %Inh of the listed compound: c1ccc(Oc2ccc(Nc3ccnc4cc(-c5ccc(CNCCN6CCOCC6)o5)ccc34)cc2)nc1
34

Look up MAST1 data: %Inh of c1ccc(-c2n[nH]cc2Nc2ccnc3ccccc23)nc1 , then report it.
3

Look up MAST1 data: %Inh of O=C(Nc1cccc(-c2nn3ccccc3c2-c2ccnc(Nc3cccc(F)c3)n2)c1)c1c(F)ccc(F)c1Cl , then report it.
0

State the measured %Inh (MAST1) of CCCCc1nn2ncccc2c1-c1ccnc(Nc2ccc(N3CCN(C)CC3)cc2)n1
31

====

system: LKB1; construct: gene STK11; settings: concentration: 1 μM, replicates: in singlicate; n = 1
Here the recorded %Inh is given for each entry.

>>> df
                                   compound  assay_readout  value
0  COc1cc(Nc2nccc(-c3c(-c4cccc(NC(=O)c5c(F)cccc5F)c4)nn4ccccc34)n2)cc(OC)c1OC [GSK323521]           %Inh     0%

Annotate the compound CN(C)Cc1ccc(-c2ccc3c(Nc4ccc(Oc5ccccn5)cc4)ccnc3c2)o1 [GW567148] with its measured %Inh.
0%

Item COC(=O)Nc1nc2ccc(Oc3ccc(NC(=O)Nc4cc(C(F)(F)F)ccc4F)cc3)cc2n1C.Cl [GW692089] : provide %Inh
53%

Assign %Inh to the following record: Cc1cccc(NC(=O)Nc2ccc(Oc3ncnc4ccn(C)c34)cc2)c1
42%

Name the recorded %Inh of the compound listed here: Cc1ccc(F)c(C(=O)Nc2cccc(-c3nn4ccccc4c3-c3ccnc(Nc4cccc(F)c4)n3)c2)c1F [GSK361061]
0%

Dear colleague, please send me the reported %Inh for Cc1ccc(C(=O)N2CC[C@@H](O)C2)cc1-n1c(C)cc(OCc2ccc(F)cc2F)c(Br)c1=O when you can.
36%

Fill in %Inh for record Nc1ncc(-c2ccc3nccc(-c4ccncc4)c3c2)cc1S(=O)(=O)N1CCOCC1 [GSK1627798]
0%

Supply %Inh value. Item: O=C(Nc1ccccc1F)NC1CCN(c2ccnc(Nc3ccc(F)cc3)n2)CC1 [GSK1379800]
0%

Annotate the compound O=c1[nH]cc(-c2ccc(N3CCOCC3)cc2)c2sc(-c3cn[nH]c3)cc12 [GSK2276055] with its measured %Inh.
0%

Please indicate %Inh recorded for c1ccc(Oc2ccc(Nc3ccnc4cc(-c5ccc(CNCCN6CCOCC6)o5)ccc34)cc2)nc1 [GW567145]
20%

Please list %Inh recorded for the compound CCc1ccc(-c2ccc3c(c2)-c2c(cnn2C)S(=O)(=O)N3C)cc1
29%

FYI, the data here is from paper PMC5540273.
